TEST TARGET: soluble guanylate cyclase (sGC) (Rattus norvegicus (Rat))
Sequence (P20595 whole entry): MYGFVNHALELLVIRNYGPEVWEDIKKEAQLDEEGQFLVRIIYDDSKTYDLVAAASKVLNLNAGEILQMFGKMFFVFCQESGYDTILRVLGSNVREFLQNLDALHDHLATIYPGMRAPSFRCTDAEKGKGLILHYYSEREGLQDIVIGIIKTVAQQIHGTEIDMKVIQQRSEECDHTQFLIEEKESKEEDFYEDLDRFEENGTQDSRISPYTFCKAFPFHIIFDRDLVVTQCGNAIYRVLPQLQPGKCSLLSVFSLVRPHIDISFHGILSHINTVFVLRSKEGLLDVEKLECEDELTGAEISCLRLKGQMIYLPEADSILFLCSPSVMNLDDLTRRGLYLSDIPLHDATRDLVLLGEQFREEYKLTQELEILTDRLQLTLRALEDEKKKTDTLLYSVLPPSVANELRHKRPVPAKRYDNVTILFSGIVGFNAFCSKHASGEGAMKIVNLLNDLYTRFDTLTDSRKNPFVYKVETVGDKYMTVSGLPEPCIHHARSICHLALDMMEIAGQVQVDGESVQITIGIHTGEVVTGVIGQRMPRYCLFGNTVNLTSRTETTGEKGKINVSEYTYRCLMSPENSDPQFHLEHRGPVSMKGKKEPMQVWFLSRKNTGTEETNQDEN
Sequence (P19686 whole entry partner): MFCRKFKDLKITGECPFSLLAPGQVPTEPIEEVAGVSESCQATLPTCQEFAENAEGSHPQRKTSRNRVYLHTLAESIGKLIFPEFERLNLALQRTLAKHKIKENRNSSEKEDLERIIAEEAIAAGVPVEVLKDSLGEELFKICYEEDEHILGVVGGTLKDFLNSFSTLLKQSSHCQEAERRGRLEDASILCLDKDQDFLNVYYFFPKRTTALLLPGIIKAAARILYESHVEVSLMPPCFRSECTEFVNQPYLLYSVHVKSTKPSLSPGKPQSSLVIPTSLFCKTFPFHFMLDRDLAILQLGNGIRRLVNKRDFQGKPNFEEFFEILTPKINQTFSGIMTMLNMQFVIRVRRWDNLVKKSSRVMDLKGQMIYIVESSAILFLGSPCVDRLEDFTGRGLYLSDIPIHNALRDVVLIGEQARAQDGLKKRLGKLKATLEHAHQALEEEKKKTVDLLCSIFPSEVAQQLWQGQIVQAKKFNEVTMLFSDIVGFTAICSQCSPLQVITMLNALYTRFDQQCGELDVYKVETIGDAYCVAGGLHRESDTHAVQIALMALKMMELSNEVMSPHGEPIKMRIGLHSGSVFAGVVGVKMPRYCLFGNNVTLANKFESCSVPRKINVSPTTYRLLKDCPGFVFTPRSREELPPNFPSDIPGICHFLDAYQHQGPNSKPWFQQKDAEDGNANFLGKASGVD
TEST NAME: Stimulation of sGC enzyme activity (PPi detection, luciferase)
Format: biochemical
ASSAY CONDITIONS: sGC enzyme in vitro
Description: Soluble guanylate cyclase (sGC) converts on stimulation GTP into cGMP and pyrophosphate (PPi). PPi is detected with the aid of the assay described below. The signal produced in the assay increases as the reaction progresses and serves as a measure of the sGC enzyme activity under the given stimulation. […]
EXPERIMENTAL ENDPOINT: MEC (minimum effective concentration), activating action at the sGC enzyme

Some compounds with known MEC (minimum effective concentration), activating action at the sGC enzyme results, for comparison:
[[record]]
compound = "CC(C)C(CC(=O)O)c1ccc(Cl)c(NC(=O)[C@H](c2ccc(C(C)(C)C)cc2)[C@@H](C)C(F)(F)F)c1 (stereo partly drawn)"
result = "0.5 nM"

[[record]]
compound = "C[C@H]([C@H](C(=O)Nc1cc(C(CC(=O)O)CC2CC2)ccc1Cl)c1ccc(Cl)cc1)C(F)(F)F (single isomer, unassigned)"
result = "1 nM"


Next compound, MEC (minimum effective concentration), activating action at the sGC enzyme to be filled in.
Name the recorded MEC (minimum effective concentration), activating action at the sGC enzyme for C[C@H]([C@H](C(=O)Nc1cc(C(CC(=O)O)C2CC2)ccc1Cl)c1ccc(Cl)cc1)C(F)(F)F (single isomer, unassigned; (+)) . 2.4 nM
